compounds and their reported log10(IC50)
ASSAY_SYSTEM: Epidermal growth factor receptor (Homo sapiens, UniProt P00533, L858R)
Sequence (P00533 25-1210 L858R limits assumed): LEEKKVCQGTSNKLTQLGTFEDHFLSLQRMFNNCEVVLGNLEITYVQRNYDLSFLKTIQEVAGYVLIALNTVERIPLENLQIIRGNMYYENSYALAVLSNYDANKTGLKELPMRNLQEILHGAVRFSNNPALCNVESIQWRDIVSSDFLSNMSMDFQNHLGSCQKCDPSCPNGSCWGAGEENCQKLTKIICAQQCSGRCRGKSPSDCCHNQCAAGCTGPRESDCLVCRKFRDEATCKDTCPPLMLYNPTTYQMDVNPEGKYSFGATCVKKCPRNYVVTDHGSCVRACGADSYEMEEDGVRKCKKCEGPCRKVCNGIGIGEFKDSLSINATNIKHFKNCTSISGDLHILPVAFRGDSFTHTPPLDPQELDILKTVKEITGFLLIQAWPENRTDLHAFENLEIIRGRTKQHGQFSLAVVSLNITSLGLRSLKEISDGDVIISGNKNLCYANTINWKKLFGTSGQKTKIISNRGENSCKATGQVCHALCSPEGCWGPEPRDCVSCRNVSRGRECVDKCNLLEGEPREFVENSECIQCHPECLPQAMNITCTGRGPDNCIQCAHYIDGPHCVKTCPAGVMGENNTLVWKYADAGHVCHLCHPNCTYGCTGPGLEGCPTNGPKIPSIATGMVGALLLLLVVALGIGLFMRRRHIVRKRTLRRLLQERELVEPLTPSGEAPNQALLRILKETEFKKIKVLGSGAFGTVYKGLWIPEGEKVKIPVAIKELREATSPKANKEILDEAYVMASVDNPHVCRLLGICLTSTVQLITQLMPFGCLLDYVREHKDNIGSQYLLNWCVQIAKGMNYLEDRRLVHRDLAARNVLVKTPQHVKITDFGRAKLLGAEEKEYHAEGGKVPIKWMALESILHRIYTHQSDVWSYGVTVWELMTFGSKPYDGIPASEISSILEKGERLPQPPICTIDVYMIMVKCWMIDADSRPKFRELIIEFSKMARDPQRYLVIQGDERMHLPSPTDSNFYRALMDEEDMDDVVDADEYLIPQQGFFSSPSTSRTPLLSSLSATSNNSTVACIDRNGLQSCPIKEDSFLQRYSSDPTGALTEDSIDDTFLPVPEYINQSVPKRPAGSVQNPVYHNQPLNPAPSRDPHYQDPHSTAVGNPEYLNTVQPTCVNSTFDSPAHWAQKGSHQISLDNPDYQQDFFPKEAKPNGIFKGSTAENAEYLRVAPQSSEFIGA
MEASURED_ATTRIBUTE: log10(IC50) (log10 of the value in µM)

{"columns": ["SMILES", "log10(IC50)"],
 "data": [
  ["Nc1ncnc2c1c(-c1ccc3nc(Cc4ccccc4)[nH]c3c1)nn2[C@H]1CC[C@H](N2CCOCC2)CC1", -0.57],
  ["COc1ccccc1Cc1nc2ccc(-c3nn([C@H]4CC[C@H](N5CCNCC5)CC4)c4ncnc(N)c34)cc2[nH]1", -1.52],
  ["CCOC(=O)N1CCN([C@H]2CC[C@H](n3nc(-c4ccc5nc(Cc6ccccc6OC)[nH]c5c4)c4c(N)ncnc43)CC2)CC1", -1.52],
  ["COc1ccccc1Cc1nc2ccc(-c3nn([C@H]4CC[C@H](N5CCN(C(C)=O)CC5)CC4)c4ncnc(N)c34)cc2[nH]1", -0.89],
  ["COc1ccccc1Cc1nc2ccc(-c3nn([C@H]4CC[C@H](N5CCN(C(=O)N(C)C)CC5)CC4)c4ncnc(N)c34)cc2[nH]1", -1.60],
  ["Nc1ncnc2c1c(-c1ccc3nc(Cc4cccs4)[nH]c3c1)nn2[C@H]1CC[C@H](N2CCOCC2)CC1", -0.44],
  ["COCCCN1CCN([C@H]2CC[C@H](n3nc(-c4ccc5nc(Cc6ccccc6OC)[nH]c5c4)c4c(N)ncnc43)CC2)CC1", -1.24],
  ["Nc1ncnc2c1c(-c1ccc3nc(Cc4ccccc4Cl)[nH]c3c1)nn2[C@H]1CC[C@H](N2CCOCC2)CC1", -1.19],
  ["COc1ccccc1Cc1nc2ccc(-c3nn([C@H]4CC[C@H](N5CCN(CC6CC6)CC5)CC4)c4ncnc(N)c34)cc2[nH]1", -2.52]
]}
